Target: CYP2C9 (Homo sapiens)
Sequence (P11712 whole entry): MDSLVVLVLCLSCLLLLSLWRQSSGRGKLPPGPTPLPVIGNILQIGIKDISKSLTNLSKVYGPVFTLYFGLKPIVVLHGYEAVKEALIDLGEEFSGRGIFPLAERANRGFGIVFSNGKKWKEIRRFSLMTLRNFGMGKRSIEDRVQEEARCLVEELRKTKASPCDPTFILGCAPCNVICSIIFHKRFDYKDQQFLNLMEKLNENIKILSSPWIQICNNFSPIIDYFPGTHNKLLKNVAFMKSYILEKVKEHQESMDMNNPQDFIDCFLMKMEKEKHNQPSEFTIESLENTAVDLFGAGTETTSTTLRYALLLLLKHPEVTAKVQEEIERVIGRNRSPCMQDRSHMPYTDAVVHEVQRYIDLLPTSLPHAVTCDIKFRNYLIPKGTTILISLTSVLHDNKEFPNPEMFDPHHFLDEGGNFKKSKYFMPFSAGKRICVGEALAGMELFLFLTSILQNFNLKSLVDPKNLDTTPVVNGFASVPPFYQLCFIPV
pIC50: −log10 of the molar value.
Recorded pIC50 values for a group of molecules are listed next.

CCCCOCCOc1ccc(-c2ccc(OCC)c(/C=C/C(=O)Nc3ccc([S@+]([O-])Cc4c(C)ncn4CC)cc3)c2)cc1 [WX047] = < 4.30

Here's the next entry for you.
Assay CYP2C9 (Homo sapiens), sample CCCCOCCOc1ccc(-c2ccc3c(c2)/C=C(/C(=O)Nc2ccc([S@@+]([O-])Cc4cncn4CCC)cc2)CCCN3CC(C)C)cc1 [(Cenicriviroc), Cenicriviroc, reference compound] , pIC50 read: < 4.30

###

Assay: Comparative pharmacokinetics study in rats
Type: in vivo, SD male rats
Details: male, Sprague-Dawley (SD), plasma; rat, intravenous injection 2 mg/kg
Tag: Condition met if measured clearance is not below 0.4 mL/min/kg, Condition not met if it is.

Assess whether reported clearance for CCCCOCCOc1ccc(-c2ccc3c(c2)/C=C(/C(=O)Nc2ccc([S@@+]([O-])Cc4cncn4CCC)cc2)CCCN3CC(C)C)cc1 [(Cenicriviroc), Cenicriviroc, reference compound] sits at 0.4 mL/min/kg or higher.
Condition met

Assess whether reported clearance for CCCCOCCOc1ccc(-c2ccc(OCC)c(/C=C/C(=O)Nc3ccc([S@+]([O-])Cc4c(C)ncn4CC)cc3)c2)cc1 sits at 0.4 mL/min/kg or higher.
Condition met

Assess whether reported clearance for CCCCOCCOc1ccc(-c2cc(F)c(OC)c(/C=C/C(=O)Nc3ccc([S@+]([O-])Cc4c(C)ncn4CC)cc3)c2)cc1 sits at 0.4 mL/min/kg or higher.
Condition not met

Assess whether reported clearance for CCCCOCCOc1ccc(-c2ccc(OC)c(/C=C/C(=O)Nc3ccc([S@+]([O-])Cc4c(C)ncn4CC)cc3)c2)cc1 sits at 0.4 mL/min/kg or higher.
Condition not met

###

Recorded pIC50 values for a group of molecules are listed next.
Biological target: CCR2 (Homo sapiens)
Experiment: CCR2 in vitro test: intracellular calcium signal detected by FLIPR
Conditions: HEK293 cells expressing CCR2, agonist MCP-1 at EC80, calcium signal
// field semantics: pIC50 = negative decimal log of concentration (mol/L)

Use the examples below as a reference point.
CCCCOCCOc1ccc(-c2ccc(OCC)c(/C=C/C(=O)Nc3ccc([S@@+]([O-])Cc4cncn4CCC)cc3)c2)cc1 = 7.54
CCCCOc1ccc(-c2ccc(OCC(F)F)c(/C=C/C(=O)Nc3ccc([S@@+]([O-])Cc4cncn4CCC)cc3)c2)cc1 = 6.76
CCCCOCCOc1ccc(-c2cc(F)c(OCC)c(/C=C/C(=O)Nc3ccc([S@+]([O-])Cc4c(C)ncn4CC)cc3)c2)cc1 = 7.82
CCCCOCCOc1ccc(-c2ccc(Cl)c(/C=C/C(=O)Nc3ccc([S@@+]([O-])Cc4cncn4CCC)cc3)c2)cc1 = 7.12
CCCCOCCOc1ccc(-c2ccc(C3CCCC3)c(/C=C/C(=O)Nc3ccc([S@+]([O-])Cc4c(C)ncn4CC)cc3)c2)cc1 = 7.92
CCCCOCCOc1ccc(-c2ccc(C3CCCC3)c(/C=C/C(=O)Nc3ccc([S@@+]([O-])Cc4c(C)ncn4CC)cc3)c2)cc1 = 7.92
CCCCOCCOc1ccc(-c2cccc(/C=C/C(=O)Nc3ccc([S+]([O-])Cc4cncn4CC4CC4)cc3)c2)cc1 (centres unmarked) = 7.43
CCCOCCOc1ccc(-c2ccc(OC(F)F)c(/C=C/C(=O)Nc3ccc([S@@+]([O-])Cc4cncn4CCC)cc3)c2)cc1 = 7.89

Consider CCCCOCCOc1ccc(-c2ccc(OC(F)F)c(/C=C/C(=O)Nc3ccc([S@+]([O-])Cc4c(C)ncn4CC)cc3)c2)cc1 . Its measured pIC50 is 8.96

###

Recorded bioavailability values for a group of compounds are listed next.
Assay: Comparative pharmacokinetics study in cynomolgus monkeys
Assay type: in vivo
Settings: male, plasma; cynomolgus monkey, oral 3 mg/kg vs intravenous 1 mg/kg
Source text: Experimental Example 3: Comparative Pharmacokinetics Study in Cynomolgus Monkeys Male cynomolgus monkeys were used as the test animals in this study. The drug concentrations in plasma of the cynomolgus monkeys by intravenous or oral administration of test compound WX047 and reference compound at different time points were quantitatively determined by LC/MS/MS, which were used to evaluate the pharmacokinetic profile of the two test drugs in cynomolgus monkeys. […]

CCCCOCCOc1ccc(-c2ccc3c(c2)/C=C(/C(=O)Nc2ccc([S@@+]([O-])Cc4cncn4CCC)cc2)CCCN3CC(C)C)cc1 [(Cenicriviroc), Cenicriviroc, reference compound] = 5.11%

Consider CCCCOCCOc1ccc(-c2ccc(OCC)c(/C=C/C(=O)Nc3ccc([S@+]([O-])Cc4c(C)ncn4CC)cc3)c2)cc1 . Its measured bioavailability is 38.9%

###

Target: UniProtKB P51681
Sequence (P51681 whole entry, species assumed): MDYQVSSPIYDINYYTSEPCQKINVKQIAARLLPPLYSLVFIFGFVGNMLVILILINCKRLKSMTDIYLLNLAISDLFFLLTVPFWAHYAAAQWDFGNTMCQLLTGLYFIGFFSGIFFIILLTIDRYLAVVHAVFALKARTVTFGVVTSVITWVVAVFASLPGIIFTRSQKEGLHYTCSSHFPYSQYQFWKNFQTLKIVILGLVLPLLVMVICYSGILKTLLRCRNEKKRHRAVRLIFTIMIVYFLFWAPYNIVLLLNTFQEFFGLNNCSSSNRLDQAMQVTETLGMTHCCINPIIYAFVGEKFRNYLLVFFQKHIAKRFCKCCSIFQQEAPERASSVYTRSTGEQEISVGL
Assay: CCR5 in vitro test: intracellular calcium signal detected by FLIPR
Conditions: HEK293 cells expressing CCR5, agonist RANTES at EC80, calcium signal
TEST_READOUT: IC50 (nM)
Provide only the numeric value, understood in nM.

Consider CCCn1cncc1C[S@+]([O-])c1ccc(NC(=O)/C=C/c2cccc(-c3ccc(OCCOC)cc3)c2)cc1 . Its measured IC50 is 14.2

Consider CCCCOCCOc1ccc(-c2ccc(C(F)(F)F)c(/C=C/C(=O)Nc3ccc([S@@+]([O-])Cc4c(C)ncn4CC)cc3)c2)cc1 . Its measured IC50 is 8.4

Consider CCCCOCCOc1ccc(-c2ccc(C)c(/C=C/C(=O)Nc3ccc([S+]([O-])Cc4cncn4CC)cc3)c2)cc1 (centres unmarked) . Its measured IC50 is 21.4

Consider CCCOCCOc1ccc(-c2ccc(OC(F)F)c(/C=C/C(=O)Nc3ccc([S@@+]([O-])Cc4cncn4CCC)cc3)c2)cc1 . Its measured IC50 is 6.1

Consider CCCCOc1ccc(-c2cccc(/C=C/C(=O)Nc3ccc([S@@+]([O-])Cc4cncn4CCC)cc3)c2)cc1 . Its measured IC50 is 9.4

Consider CCCCOc1ccc(-c2ccc(OCC(F)F)c(/C=C/C(=O)Nc3ccc([S@@+]([O-])Cc4cncn4CCC)cc3)c2)cc1 . Its measured IC50 is 3.2

Consider CCCCOCCOc1ccc(-c2ccc(C(C)C)c(/C=C/C(=O)Nc3ccc([S@@+]([O-])Cc4cncn4CCC)cc3)c2)cc1 . Its measured IC50 is 3.3

Consider CCCn1cncc1C[S@+]([O-])c1ccc(NC(=O)/C=C/c2cccc(-c3ccc(OC(C)C)cc3)c2)cc1 . Its measured IC50 is 6.4

Consider CCCCOCCOc1ccc(-c2ccc(OC)c(/C=C/C(=O)Nc3ccc([S@@+]([O-])Cc4cncn4CC)cc3)c2)cc1 . Its measured IC50 is 10.5

Consider CCCCOCCOc1ccc(-c2ccc(OC)c(/C=C/C(=O)Nc3ccc([S+]([O-])Cc4cnccc4CC)cc3)c2)cc1 (centres unmarked) . Its measured IC50 is 1.8

Consider CCCCOc1ccc(-c2ccc(OC)c(/C=C/C(=O)Nc3ccc([S@@+]([O-])Cc4cncn4CCC)cc3)c2)cc1 . Its measured IC50 is 2.6

Consider CCCOCCOc1ccc(-c2ccc(OCC)c(/C=C/C(=O)Nc3ccc([S+]([O-])Cc4c(C)ncn4CCC)cc3)c2)cc1 (centres unmarked) . Its measured IC50 is 1

Consider CCCCOc1ccc(-c2ccc(Cl)c(/C=C/C(=O)Nc3ccc([S+]([O-])Cc4cncn4CC)cc3)c2)cc1 (centres unmarked) . Its measured IC50 is 8.2

Consider CCCCOCCOc1ccc(-c2ccc(CC)c(/C=C/C(=O)Nc3ccc([S@@+]([O-])Cc4cncn4CCC)cc3)c2)cc1 . Its measured IC50 is 3.4

###

Target: CYP2C19 (Homo sapiens, UniProt P33261)
Sequence (P33261 whole entry): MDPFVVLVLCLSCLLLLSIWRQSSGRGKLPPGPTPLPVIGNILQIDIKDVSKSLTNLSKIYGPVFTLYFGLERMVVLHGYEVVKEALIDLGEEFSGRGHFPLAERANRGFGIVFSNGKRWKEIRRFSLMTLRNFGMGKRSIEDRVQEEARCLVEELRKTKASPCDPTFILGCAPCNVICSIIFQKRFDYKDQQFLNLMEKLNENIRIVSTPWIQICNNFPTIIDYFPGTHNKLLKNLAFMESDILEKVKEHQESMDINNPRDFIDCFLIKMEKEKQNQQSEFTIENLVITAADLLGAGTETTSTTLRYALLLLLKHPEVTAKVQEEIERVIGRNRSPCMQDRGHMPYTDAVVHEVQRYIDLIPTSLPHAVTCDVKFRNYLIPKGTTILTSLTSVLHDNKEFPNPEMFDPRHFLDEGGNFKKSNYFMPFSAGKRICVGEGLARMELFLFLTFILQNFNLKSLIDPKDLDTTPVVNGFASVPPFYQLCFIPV
TEST_READOUT: IC50

Consider CCCCOCCOc1ccc(-c2ccc3c(c2)/C=C(/C(=O)Nc2ccc([S@@+]([O-])Cc4cncn4CCC)cc2)CCCN3CC(C)C)cc1 [(Cenicriviroc), Cenicriviroc, reference compound] . Its measured IC50 is > 50 µM

###

Recorded IC50 values for a group of compounds are listed next.
Target: CCR2 (Homo sapiens, UniProt P41597)
Construct: expressed in transfected cells; host or cells: HEK293, clone C7, passage P6
Sequence (P41597 whole entry, species assumed): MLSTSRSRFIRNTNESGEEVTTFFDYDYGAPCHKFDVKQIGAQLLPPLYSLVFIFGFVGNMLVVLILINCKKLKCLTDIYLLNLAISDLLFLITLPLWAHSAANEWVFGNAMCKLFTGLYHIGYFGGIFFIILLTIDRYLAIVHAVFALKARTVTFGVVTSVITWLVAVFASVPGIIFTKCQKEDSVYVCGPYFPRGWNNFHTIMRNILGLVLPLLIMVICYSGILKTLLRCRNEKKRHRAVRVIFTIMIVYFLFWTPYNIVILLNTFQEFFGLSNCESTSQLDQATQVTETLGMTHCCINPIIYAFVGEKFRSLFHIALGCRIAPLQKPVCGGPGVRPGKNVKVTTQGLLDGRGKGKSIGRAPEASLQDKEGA
Assay: CCR2 in vitro test: intracellular calcium signal detected by FLIPR
Format: cell-based
Conditions: HEK293 cells expressing CCR2, agonist MCP-1 at EC80, calcium signal
Provide only the numeric value, understood in nM.

Consider CCCCOCCOc1ccc(-c2cccc(/C=C/C(=O)Nc3ccc(S(=O)(=O)Cc4cncn4CCC)cc3)c2)cc1 . Its measured IC50 is 237

Consider CCCn1cncc1C[S@+]([O-])c1ccc(NC(=O)/C=C/c2cc(-c3ccc(OCCCF)cc3)ccc2Cl)cc1 . Its measured IC50 is 205

Consider CCCCOCCOc1ccc(-c2ccc([S+]([O-])C(C)C)c(/C=C/C(=O)Nc3ccc([S@@+]([O-])Cc4c(C)ncn4CC)cc3)c2)cc1 (stereo partly shown) . Its measured IC50 is 24.7

Consider CCCn1cncc1C[S@+]([O-])c1ccc(NC(=O)/C=C/c2cccc(-c3ccc(OCC)cc3)c2)cc1 . Its measured IC50 is 153
